test: Toxicity liver stage against HepG2, at 10uM; type: cell-based; set-up: test concentration 10 uM, cell line HepG2-A16-CD81EGFP; details: human, HepG2-A16-CD81EGFP cells; read-out: INHIBITION
cytotoxicity at 10 µM values, listed per item
Observable: cytotoxicity at 10 µM (%)

>>> print(df.to_string())
                                    molecule  u  measured
 0   Cc1ncc(S(=O)(=O)N(CC(C)C)c2cccc(O)c2)s1  %     -41.2
 1  COc1ccc(NC(=O)c2ccoc2C)c(N2CCN(C(C)=O)CC2)n1  %     -9.09
 2   CC(C)Cc1ncc2c(n1)CN(c1nccc(NC(C)C)n1)C2  %     -10.7
 3  CCc1nnc(CNC(=O)CCC2CCCCN2C)s1 (stereo not drawn)  %      -147
 4      O=C(NCCNc1ncccn1)N1CCN(Cc2cccnc2)CC1  %     -3.71
 5  Cc1cc(C)c(CNC(=O)NCC2CCCOC2)c(=O)[nH]1 (stereo not drawn)  %     -8.19
 6  CNc1cc(C2CCCN2C(=O)CCc2ccccc2F)ccn1 (stereo not drawn)  %     -2.01
 7        O=C(CCS(=O)(=O)C1CCCC1)NCCc1cccnc1  %      6.86
 8   COCCn1ccc(=O)c(OCC(=O)Nc2cccc(Cl)c2)c1C  %      2.16
 9  CCNC(=O)C1(Cc2cc(-c3ccccc3)no2)CCCN(C(C)=O)C1 (stereo not drawn)  %      15.9
10     O=C(NCCOc1ccc(F)c(F)c1)NCc1cccc(CO)c1  %     -8.86
11  O=C(CO)N1CCC(c2ccnc(Nc3cc(C(F)(F)F)ccn3)n2)C1 (stereo not drawn)  %        18
12  O=C1CCC2(CCCN(C(=O)c3ccoc3)C2)CN1CCc1c[nH]cn1 (stereo not drawn)  %      4.54
13      CCc1nc(CN2CCCN(C(=O)CCOC(C)C)CC2)cs1  %     -17.3
14     CC1(C)CN(CC(=O)NCc2ccccc2F)C[C@]1(C)O  %     -1.84
15     COC(C)(C)C(=O)N1Cc2cnc(C(C)(C)C)nc2C1  %      -121
16     COc1ccc(CNCc2c(C(C)C)nn(C)c2N(C)C)cn1  %     -3.92
17  CC1CCN(C(=O)[C@H]2CC[C@@H]3[C@@H](CCN3Cc3nccs3)O2)CC1  %      4.62
18           Brc1ccccc1-c1nnc(CNCCn2cccn2)o1  %     -24.5
19  CN(Cc1ccco1)C[C@H]1OC[C@@H]2CCN(Cc3ccsc3)C[C@@H]21  %      -3.2
20  N#Cc1cccc(NC(=O)CCn2nc(-c3cccs3)oc2=O)c1  %        -2
21        CCCC(=O)NCCc1cc(NC)nc(-c2ccccn2)n1  %      1.12
22  CCc1noc(C(C)N2CCN(Cc3nc(C)c(C)o3)CC2)n1 (stereo not drawn)  %     -1.71
23  O=C(NCc1ccc2c(c1)OCO2)c1ccc(N2CCCCC2)nn1  %      -9.7
24  O=C(Cc1cccc(F)c1F)NC1COc2ccccc2C1=O (stereo not drawn)  %      10.4
25  Cc1nc(CCCNC(=O)[C@H]2CNC[C@@H](C(=O)N3CCCC3)C2)sc1C  %      -132
26  Cc1nccc(N2CCN(C3CCOCC3)CC(C(=O)N(C)C)C2)n1 (stereo not drawn)  %      2.12
27  CN1C(=O)CC2(CCN(S(=O)(=O)N(C)C)CC2)c2ccccc21  %     0.688
28      Cc1ccccc1Cn1cnc2oc(C)c(C(=O)O)c2c1=O  %     -1.49
29  O=C1N(Cc2ccccc2F)CCCC12CCN(C1CCSCC1)C2 (stereo not drawn)  %    0.0366
30  O=C(c1cccnc1)N1CCC(Oc2cccc(C(F)(F)F)c2)CC1  %      7.19
31                   CCCC(=O)N1CCC2(CC1)COC2  %      1.58
32    CCOc1ncccc1C(=O)N1CCC(Nc2ccc(C)nn2)CC1  %     -20.6
33                Cc1cc(NCCO)nc2[nH]nc(N)c12  %     -51.7
34  O=C(NC[C@H]1CCCO1)c1ccc(S(=O)(=O)N2C[C@H]3C[C@@H]2CN3)cc1  %       2.5
35  Cc1cc(CN2CCOC(CNc3cccnn3)C2)on1 (stereo not drawn)  %     -13.8
36  Cc1nccc(C2CCCCN2Cc2ccc(F)cc2)n1 (stereo not drawn)  %     -6.06
37               O=C(NCC(F)(F)C(F)F)c1ccncc1  %      10.3
38   Cc1cc(N2CCN(C(=O)CCc3scnc3C)CC2)nc(N)n1  %     -49.2
39  O=C(N[C@@H]1CNCCC[C@H]1O)c1ccc(OCc2ccccc2)cc1  %     -3.39
40       O=C(c1cccc(F)c1)N1CCCN(Cc2cscn2)CC1  %     -3.13
41     Cc1nn(C)c(N(C)C)c1CNCc1ccccc1Cn1cncn1  %      3.85
42   CCn1cc(CN2CCC(O)(Cn3ccc4ncccc43)CC2)cn1  %     -16.3
